System: Enterococcus faecalis
Experiment: Antibacterial activity against vancomycin-resistant Enterococcus faecalis 10 incubated for 18 hrs by broth microdilution method
Assay type: functional
ASSAY_METRIC: MIC

Worked cases, answers included:
CC(C)=C[C@H]1c2c(O)cc(C)cc2Oc2cc(O)c(C(=O)O)c(C)c21: 16 µg/mL
COC(=O)c1c(OC)cc2c(c1C)[C@@H](C=C(C)C)c1c(O)cc(C)cc1O2: 4 µg/mL
COC(=O)c1c(O)cc2c(c1C)[C@@H](C=C(C)C)c1c(O)cc(C)cc1O2: 8 µg/mL
CN[C@H](CC(C)C)C(=O)N[C@H]1C(=O)N[C@@H](CC(N)=O)C(=O)N[C@H]2C(=O)N[C@H]3C(=O)N[C@H](C(=O)N[C@H](C(=O)O)c4cc(O)cc(O)c4-c4cc3ccc4O)[C@H](O)c3ccc(c(Cl)c3)Oc3cc2cc(c3O[C@@H]2O[C@H](CO)[C@@H](O)[C@H](O)[C@H]2O[C@H]2C[C@](C)(N)[C@H](O)[C@H](C)O2)Oc2ccc(cc2Cl)[C@H]1O: > 128 µg/mL

**Q:** Find the recorded MIC belonging to `COC(=O)c1c(OC)cc2c(c1C)[C@@H](C=C(C)C)C1=C(O2)C(=O)C(C)=CC1=O` and report it.
**A:** 8 µg/mL

**Q:** Cool, now `COC(=O)c1c(O)cc2c(c1C)[C@@H](C=C(C)C)C1=C(O2)C(=O)C(C)=CC1=O`
**A:** 8 µg/mL

**Q:** Next compound: `COC(=O)c1c(O)cc2c(c1C)C=C1c3c(cc(C)c(O)c3O2)OC1(C)C`
**A:** 16 µg/mL
